- Target or system: vaccinia virus D10 decapping enzyme (His-tagged, WT) (Vaccinia virus, UniProt P04312)
- Assay procedure: biochemical
- Format: biochemical
Assay metric: Inhibition of the decapping reaction (in words)

O=P(O)(O)OP(=O)(O)OP(=O)(O)O [tripolyphosphate] ... unable to inhibit
Nc1ccn([C@@H]2O[C@H](COP(=O)(O)OP(=O)(O)OP(=O)(O)O)[C@@H](O)[C@H]2O)c(=O)n1 ... no inhibition
O=P(O)(O)OP(=O)(O)O [pyrophosphate] ... unable to inhibit
O=c1ccn([C@@H]2O[C@H](COP(=O)(O)OP(=O)(O)OP(=O)(O)O)[C@@H](O)[C@H]2O)c(=O)[nH]1 ... no inhibition
